B1: Pistol ribozyme (parent)
chain: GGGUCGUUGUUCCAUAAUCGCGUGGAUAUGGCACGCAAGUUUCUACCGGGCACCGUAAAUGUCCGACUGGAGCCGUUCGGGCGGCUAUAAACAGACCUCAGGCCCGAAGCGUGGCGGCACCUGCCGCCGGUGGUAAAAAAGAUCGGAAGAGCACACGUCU

Variants of: B1
Assay: aptazyme ON/OFF ratio, guanine; higher = stronger switching; co-transcriptional cleavage with and without guanine
Listing: aptazyme ON/OFF ratio of selected variants
Answer as a number with no unit attached.

MUTATION DESCRIPTOR: U7G U8A G9U U10G U11A C12U C13G
ENDPOINT RESULT: 1.03
--
MUTATION DESCRIPTOR: U7A U8G U10C U11A C12A
ENDPOINT RESULT: 1.5
--
MUTATION DESCRIPTOR: U7C U8G G9A U10G C12A C13A
ENDPOINT RESULT: 1.12
--
MUTATION DESCRIPTOR: U7G U8C U10A C12G C13G
ENDPOINT RESULT: 1.15
--
MUTATION DESCRIPTOR: U7A U8C G9A U10A U11G C13G
ENDPOINT RESULT: 1.12
--
MUTATION DESCRIPTOR: U7C U8A G9A U10C U11C C13G
ENDPOINT RESULT: 1.05

Please look up its aptazyme ON/OFF ratio: U7C U8G U10A U11A C12U C13G
1.12

Same again, this time with U7G U8G G9A U10G U11C C12G C13G
1.13

And then U8A U10A U11G C12G C13U , what is it?
1.27

Further, for U7G U8G G9C U10A U11C C12G C13U ?
1.06

Next variant up: U7C U10A U11G C12U C13G
1.2

Likewise for U7G U8C G9U U10G U11C C12G ?
1.38

Also, G9C U11C C12G C13G please.
1.09
